target: Protein farnesyltransferase (Homo sapiens, UniProt P49354+P49356); assay: Inhibition of human recombinant farnesyltransferase using Dansyl-GCVLS peptide as substrate after 15 mins by fluorescence assay
MEASURE: IC50 (µM)

Field: example entries. Status: answers known.
{"columns": ["SMILES_NOTATION", "OBSERVED_VALUE"],
 "data": [
  ["C#CCCOC(=O)c1cc(C(=O)c2ccc(Br)cc2)n2c(C)cccc12", 2.2],
  ["C#CCNC(=O)c1cc(C(=O)c2ccccc2)n2c(C)cccc12", 57.8],
  ["C#CCNC(=O)c1cc(C(=O)c2ccc(Br)cc2)n2c(C)cccc12", 11.4],
  ["Cc1cccc2c(C(=O)O)cc(C(=O)c3ccc(Cl)cc3)n12", 32.2]
]}

I: C#CCOC(=O)c1cc(C(=O)c2ccc(Br)cc2)n2c(C)cccc12
II: C#CCNC(=O)c1cc(C(=O)c2ccccc2)n2ccc(C)cc12
Request: Look at I and II . Which one has the lower recorded IC50 number? State the label of the item chosen.
Result: I

====

target: Protein farnesyltransferase (Homo sapiens, UniProt P49354+P49356); experiment: Inhibition of human recombinant farnesyltransferase using Dansyl-GCVLS peptide as substrate after 15 mins by fluorescence assay
MEASURE: IC50 (µM)

Field: example entries. Status: answers known.
{"columns": ["SMILES_NOTATION", "TEST_SYSTEM", "IC50 (µM)"],
 "data": [
  ["CCCCCCCCCCCCCC/C(C(=O)O)=C(\\C)C(=O)O", "Protein farnesyltransferase (Homo sapiens, UniProt P49354+P49356)", 0.18],
  ["C#CCCOC(=O)c1cc(C(=O)c2ccccc2)n2c(C)cccc12", "Protein farnesyltransferase (Homo sapiens, UniProt P49354+P49356)", 7.3]
]}

I: C#CCNC(=O)c1cc(C(=O)c2ccc(Br)cc2)n2ccccc12
II: O=C(O)c1cc(C(=O)c2ccc(Cl)cc2)n2ccccc12
Request: Look at I and II . Which one has the lower recorded IC50 number? State the label of the item chosen.
Result: I
(I: 4.4 µM, II: 20.7 µM)

====

target: Protein farnesyltransferase (Homo sapiens, UniProt P49354+P49356); assay: Inhibition of human recombinant farnesyltransferase using Dansyl-GCVLS peptide as substrate after 15 mins by fluorescence assay
pIC50: −log10 of the molar value.
MEASURE: pIC50

{"columns": ["SMILES_NOTATION", "pIC50"],
 "data": [
  ["O=C(O)c1cc(C(=O)c2ccccc2)n2ccccc12", 4.71],
  ["C#CCOC(=O)c1cc(C(=O)c2ccccc2)n2ccccc12", 4.84],
  ["O=C(O)c1cc(C(=O)c2ccc(Br)cc2)n2ccccc12", 4.71],
  ["C#CCNC(=O)c1cc(C(=O)c2ccc(Cl)cc2)n2c(C)cccc12", 4.83],
  ["C#CCNC(=O)c1cc(C(=O)c2ccccc2)n2ccccc12", 4.66],
  ["C#CCNC(=O)c1cc(C(=O)c2ccc(Cl)cc2)n2ccccc12", 5.23],
  ["Cc1ccn2c(C(=O)c3ccccc3)cc(C(=O)O)c2c1", 4.14],
  ["C#CCCOC(=O)c1cc(C(=O)c2ccc(Cl)cc2)n2c(C)cccc12", 4.68]
]}

P: Cc1cccc2c(C(=O)O)cc(C(=O)c3ccc(Br)cc3)n12
Q: C#CCOC(=O)c1cc(C(=O)c2ccc(Cl)cc2)n2c(C)cccc12
Request: Look at P and Q . Which one has the lower recorded pIC50 number? State the label of the item chosen.
Result: P
(P: 4.83, Q: 5.59)

The origin of these recorded values is ChEMBL document CHEMBL3352249.
